// provenance: patent US12421253B2

target: KRas^G12A (Homo sapiens, UniProt P01116, G12A); construct: […]; biotin (biotinylated); experiment: KRas binding assay (TR-FRET displacement of Cy5 labelled tracer)
Sequence (P01116 1-169 isoform P01116-2 G12A): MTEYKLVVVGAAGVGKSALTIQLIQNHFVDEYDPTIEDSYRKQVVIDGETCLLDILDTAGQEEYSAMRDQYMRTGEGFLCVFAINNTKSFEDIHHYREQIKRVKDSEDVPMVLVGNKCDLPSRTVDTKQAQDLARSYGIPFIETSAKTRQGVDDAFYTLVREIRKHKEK
pIC50: −log10 of the molar value.

COMPOUND	pIC50
CCc1cccc2cccc(N3CCc4c(nc(OCC56CCCN5CCC6)nc4N4CCCC(c5ccn(C)n5)C4)C3)c12 (centres unmarked) [Example 100]	6.00
CCc1cccc2cccc(N3CCc4c(nc(OCC56CCCN5CCC6)nc4N4CCCC(c5nnc6n5CCC6)C4)C3)c12 (centres unmarked) [Example 106]	6.20
CCc1cccc2cccc(N3CCc4c(nc(OCC56CCCN5CCC6)nc4N4Cc5ccnn5CC(O)C4)C3)c12 (centres unmarked) [Example 50]	6.24
CCc1cccc2cccc(N3CCc4c(nc(OCC56CCCN5CCC6)nc4N4CCC(O)CC(C)C4)C3)c12 (centres unmarked) [Example 92]	6.52
